Consider the following compounds and their measured AC26 readings.
System: D54 ERlucT glycosylation luciferase reporter, luminescence, 24 h
experiment: N-linked glycosylation inhibitors, luciferase reporter, dose response, D54 ERlucT cells, luminescence, cherry-picks (AID 624491);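 note: signal gain reflects blocked N-linked glycosylation of a luciferase reporter; actives raise luciferase signal so AC26 marks activators of the reporter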
endpoint-label: AC26

COc1ccc(N2CCc3c(C)nc4c(OC)cccc4c32)cc1    368 nM
COc1ccc(OC)c(S(=O)(=O)Nc2ccc(-c3ccc4nnc(C)n4n3)cc2)c1    3190 nM
Cc1cc(C)nc(/N=C(\N)Nc2ccc(CC(=O)OC(C)C)cc2)n1    5890 nM
CCOC(=O)c1[nH]c(C)c(C(=O)Nc2ccc(C)cc2C)c1C    494 nM
O=C(N/N=C/c1ccccn1)c1cc(-c2ccncc2)nc2ccccc12    499 nM
COc1ccc(C(=O)CSc2nnc(-c3cc4ccccc4cc3O)n2Cc2ccco2)cc1    1840 nM
CCOc1ccc(NC(=O)C(=O)NCCN2CCN(S(=O)(=O)c3ccc(C)cc3)CC2)cc1    4890 nM
O=C(CCl)Nc1cc(S(=O)(=O)N2CCCCCC2)ccc1Cl    441 nM
CC(=O)c1cccc(Nc2cc(C)nc3c(C)cc(C)cc23)c1    4210 nM
COc1cc(Nc2c3c(nc4ccccc24)CCC3)cc(OC)c1OC    71.5 nM
O=C(Nc1ncccc1O)c1ccc(S(=O)(=O)Nc2ccccc2)cc1    2190 nM
C=C(C)Cn1c2ccc(NC(=O)CCc3cccc(Cl)c3)cc2c(=O)n1C    7490 nM
COc1ccc(/C(C)=N/NC(=O)c2ccccc2OCc2ccccc2)c(OC)c1    121 nM
O=C(COc1ccccc1)Nc1cccc(-c2cn3cccnc3n2)c1    5880 nM
C=CCOc1ccc(C(=O)Nc2ccccc2C(=O)NCc2cccnc2)cc1    2160 nM
COc1cc(-c2noc(C)c2/C=C/c2ccc(OC(C)=O)cc2)cc(OC)c1OC    494 nM
O=C1NC(=O)N(Cc2ccco2)C(=O)/C1=C/C=C/c1ccco1    953 nM
O=C(/C=C/c1cccc(Br)c1)c1ccc2c(c1)OCO2    7470 nM
CCc1ccc(CNC(=O)Cc2ccc(NC(=O)C3=C(C)OCCS3)cc2)cc1    352 nM
COc1ccc(/C=N/NC(=O)c2c(C)nc3ccc(Br)cn23)cc1OC    2520 nM
CC1(C(=O)Nc2ccc3c(c2)OCO3)Cc2c(-c3ccc4c(c3)OCO4)ccnc2O1 (stereo not drawn)    7650 nM
CCNc1ccc(C(=O)OCC)cc1NC(=O)c1cccc(N(C)C)c1    3160 nM
CCN1C(=O)CCN(C2CCCC2)c2nc(Nc3ccc(C(=O)NC4CCN(C)CC4)cc3OC)ncc21    479 nM
COCCNC(=O)c1cc(-c2cccs2)on1    4600 nM
Cc1ccc(-c2nn3c(C)nnc3s2)cc1NCc1c(F)cccc1Cl    7650 nM
COC(=O)Nc1nc2ccc(-c3n[nH]c(=O)c4ccccc34)cc2[nH]1    3350 nM
COc1ccc(C(=O)c2cc([N+](=O)[O-])ccc2N2CCN(C)CC2)cc1    2330 nM
Cc1cccc2c(N)c3c(nc12)N(C)CC3    7370 nM
O=C(NC1CCCCC1)c1ccc([N+](=O)[O-])o1    852 nM
Cc1ccc(C(=O)N2CCN(Cc3ccccc3)CC2)cc1S(=O)(=O)N1CCOCC1    1670 nM
CC[C@H](C)C(=O)O[C@H]1C[C@@H](C)C=C2C=C[C@H](C)[C@H](CC[C@@H]3C[C@@H](O)CC(=O)O3)[C@H]21    301 nM
COC(=O)/C=C1\C(=O)N(c2nc3ccccc3s2)C(=S)N1c1ccc(F)cc1    2300 nM
COc1ccc(-c2nnc(SCC(=O)Nc3ncc(C)s3)n2-c2ccccc2)cc1OC    1050 nM
COc1ccc(CC(=O)N(Cc2ccccc2)c2ccc(C)cc2)cc1S(=O)(=O)N1CCOCC1    1160 nM
CCOc1cc(NC(=O)CCl)c(OCC)cc1NC(=O)CCl    1690 nM
Cn1c(=O)cc(OCCCC(=O)NC2CCCC2)c2ccccc21    2400 nM
c1ccc(-n2nnnc2-c2cccc3ccccc23)cc1    2390 nM
COc1ccc(C2(CNC(=O)c3cc(OC)c(OC)c(OC)c3)CCCC2)cc1OC    3140 nM
CC(=O)Nc1cccc(-c2ccnc3c2CC(C)(C(=O)NCC2CC2)O3)c1 (stereo not drawn)    5110 nM
CC(C)(C)c1ccc(OCC(=O)Nc2ccncc2)c(Br)c1    4130 nM
COC(=O)c1c(C)[nH]c(C(=O)/C=C/c2cccc(Cl)c2)c1C    2410 nM
COc1ccccc1OCC(=O)N/N=C/C=C/c1ccc([N+](=O)[O-])o1    432 nM
CCOC(=O)N1CCN(C(=O)c2cc(-c3ccncc3)nc3ccccc23)CC1    1410 nM
